Listed below are compounds with IC50 for UniProt:P06746, each taken from published literature.
Numbers only, in µM.

Parameter requested: IC50. Apply to each item below.
1. C=CCc1c(OC)cc(OC)c2c1OCO2
2. C[C@H]1[C@H](C)CC[C@]2(C(=O)O)CC[C@]3(C)C(=CC[C@@H]4[C@@]5(C)CC[C@H](O)C(C)(C)[C@@H]5CC[C@]43C)[C@H]12
3. O=c1ccc2ccc(Cc3cc4ccc(O)cc4oc3=O)cc2o1
4. COc1cc2c(O)c(Cc3ccc4ccc(=O)oc4c3)c(=O)oc2cc1O

[A]
1. 18.6
2. 18.6
3. 22.5
4. 122

====

pIC50: −log10 of the molar value.
Listed below are compounds with pIC50 for DNA polymerase beta (Homo sapiens), each taken from published literature.

Below, 4 compounds whose answers are already recorded.
1. O=C(O)c1ccc2c(c1)nc(-c1ccc(OC(c3cccnc3)c3cccnc3)cc1F)n2C1CCCCC1    < 5.00
2. CCCC1(CC(=O)O)OCCc2c1[nH]c1c(Cl)ccc(CC)c21 (stereo not given)    < 4.00
3. Cc1cc(S(=O)(=O)N2CCC[C@H]2C(=O)O)c(N)cc1Cl    < 4.00
4. Cc1ccc(C(Oc2ccc(-c3nc4cc(C(=O)O)ccc4n3C3CCCCC3)cc2)c2ccc(C)cc2)cc1    < 5.00

[Q] Given `O=C(O)c1ccc2c(c1)nc(-c1ccc(OC(c3ccc(F)cc3)c3ccc(F)cc3)cc1)n2C1CCCCC1` , state its recorded pIC50.
[A] < 5.00
